- Protocol: NCI Yeast Anticancer Drug Screen. Data for the mlh1 rad18 strain (AID 175)
- Cond: S. cerevisiae mlh1 rad18 strain growth inhibition; at 50.0 µM; active compounds read high
The panel holds about 79,000 compounds, 15% with a hit somewhere; the sample as a whole holds those more often.
As shown below, each of these molecules has a reported growth inhibition value.
Parameter Measured: growth inhibition (%)

Molecule: COC(=O)c1nc(N)nc(C(=O)OC)c1C(=O)c1ccccn1
Measure Unit: %
Measured Value: -1.75
//
Molecule: CCCCC/C(C)=C\C(=O)O
Measure Unit: %
Measured Value: 5.35
//
Molecule: CC1=NNC(=O)C1(C)C
Measure Unit: %
Measured Value: 4.55
//
Molecule: CC(C)(C)OC(=O)N/N=C(/N)Cc1ccc(Cl)cc1
Measure Unit: %
Measured Value: 6.4
//
Molecule: O=C1CCCC2(c3ccc([N+](=O)[O-])cc3)C1C1C(=O)CCCC12c1ccc([N+](=O)[O-])cc1 (stereo not given)
Measure Unit: %
Measured Value: 5.5
//
Molecule: Cc1cnc2ccccc2c1
Measure Unit: %
Measured Value: 2.8
//
Molecule: COc1ccc(C(=O)Sc2c(-c3ccccc3)c(=O)n(-c3ccccc3)c(=S)n2-c2ccccc2)cc1
Measure Unit: %
Measured Value: 10.1
//
Molecule: CC(=O)N(c1ccccc1)c1ccccc1
Measure Unit: %
Measured Value: 4.1
//
Molecule: COc1c(NC(=O)c2ccc(Cl)c(Cl)c2)cccc1[N+](=O)[O-]
Measure Unit: %
Measured Value: -1.3
//
Molecule: CC1=C(CCC(C)N)C(C)(C)CCC1 (stereo not given)
Measure Unit: %
Measured Value: 12.8
//
Molecule: S=C(NCCS)Nc1ccccc1
Measure Unit: %
Measured Value: 13.3
//
Molecule: COc1ccc(C(Br)C(Br)C(=O)C(C)(C)C)cc1 (stereo not given)
Measure Unit: %
Measured Value: 30.4
//
Molecule: NCCCC(NC(=O)CCCCCCCCN=C(N)N)C(O)CCCCCCCCN=C(N)N (stereo not given)
Measure Unit: %
Measured Value: 0.75
//
Molecule: COC(=O)[C@@]1(C)/C(=N/NS(=O)(=O)c2ccc(C)cc2)CCC[C@@H]1C
Measure Unit: %
Measured Value: -1.85
//
Molecule: CCCCCCCCCCCCCCCCc1ccc(CCCC(=O)O)cc1
Measure Unit: %
Measured Value: 12.5
//
Molecule: [Cu+2].[O-]C1c2c(ccc3ccccc23)-c2ccccc2C1N=Nc1ccccc1.[O-]c1c(N=Nc2ccccc2)c2ccccc2c2ccc3ccccc3c12 (stereo not given)
Measure Unit: %
Measured Value: -20.2
//
Molecule: C[C@@H]1Nc2ccccc2[C@H]1C
Measure Unit: %
Measured Value: -8.1
//
Molecule: CC(=O)Nc1ccc(S(=O)(=O)N/N=c2/sc3ccccc3n2C)cc1N
Measure Unit: %
Measured Value: 3.2
//
Molecule: NC(=O)/N=C/NC(N)=O
Measure Unit: %
Measured Value: 2.65
//
Molecule: O=CC1CCCO1 (stereo not given)
Measure Unit: %
Measured Value: 22
//
Molecule: CCCNC(=S)/N=C\c1c(O)c2ccccc2oc1=O
Measure Unit: %
Measured Value: -5.4
//
Molecule: N#CCc1cn(-c2ccccc2)nn1
Measure Unit: %
Measured Value: -25.2
//
Molecule: Cc1ccccc1N=Nc1c(C)nc(N)nc1-c1ccccc1
Measure Unit: %
Measured Value: 12.2
//
Molecule: O=CN(Cc1cnccn1)Cc1cnccn1
Measure Unit: %
Measured Value: -14.2
//
Molecule: COc1ccccc1NC(=O)C1=C(C)NC(C)=C(C(=O)Nc2ccccc2OC)C1c1ccccc1Cl
Measure Unit: %
Measured Value: 23.4
